Tested on: Streptococcus sp.
measurement-description: in vitro antibacterial evaluation, MIC by broth dilution
Type: cell-based
condition-details: broth dilution, inoculum 5×10^5 CFU/mL, 18 hours at 35° C.; strain GC 4565

{"columns": ["compound", "target-of-assay", "MIC Streptococcus pneumoniae (GC 4565)"],
 "data": [
  ["CC(C)=CCN1CC(C(O)C2NC(=O)C(C(O)C3CNC(=N)N3)NC(=O)C(Cc3ccc(OC4OC(CO)C(OC5OC6COC7(OC6C(O)C5O)C5CC6CC(C5)CC7C6)C(O)C4O)cc3)NC(=O)C(C(C)c3ccccc3)NC(=O)CNC(=O)C(CO)NC2=O)N(C2OC(CO)C(O)C(O)C2O)C1=N (centres unmarked) [Example 225]", "Streptococcus sp.", "1 µg/mL"],
  ["CC(c1ccccc1)C1NC(=O)CNC(=O)C(CO)NC(=O)C(CC2CNC(=N)N2C2OC(CO)C(O)C(O)C2O)NC(=O)C(CC2CNC(=N)N2)NC(=O)C(Cc2ccc(OC3OC(CO)C(OC4OC(CO)C(OCc5ccc(OCc6ccccc6)cc5)C(O)C4O)C(O)C3O)cc2)NC1=O (centres unmarked) [Example 246a]", "Streptococcus sp.", "0.25 µg/mL"]
]}

====

Tested on: Enterococcus sp.
measurement-description: in vitro antibacterial evaluation, MIC by broth dilution
Type: cell-based
condition-details: broth dilution, 18 hours at 35° C.; strain GC 3059
Numbered stars: 1 amine (or outer) side, 2 acyl side, 3 side chain; on linkers, the order of the positions; unused ones are H or OH. Square brackets hold non-standard residues; d marks the D form. Peptide text beside a SMILES is read from it. * marks the point of attachment. ξ: configuration not given here. X1 = N=C1NCC(C(O)C(N[*:1])C(=O)[*:2])N1C1OC(CO)C(O)C(O)C1O; ξEnduracididine(βξ-OH,4'ξ) = N=C1NCC(C(O)C(N)C(=O)O)N1; X2 = OCC1OC(OC2C(CO)OC(*)C(O)C2O)C(O)C(O)C1O
value-type: MIC Enterococcus faecalis (GC 3059) (µg/mL)

{"columns": ["compound", "target-of-assay", "value-type", "value-relation-sign", "recorded-number"],
 "data": [
  ["CC(C1CCCCC1)C1NC(=O)CNC(=O)C(CO)NC(=O)C(C(O)C2CNC(=N)N2C2OC(CO)C(O)C(O)C2O)NC(=O)C(C(O)C2CNC(=N)N2)NC(=O)C(C[C@H]2CC[C@H](O)CC2)NC1=O (stereo partly shown) [Example 54a]", "Enterococcus sp.", "MIC Enterococcus faecalis (GC 3059)", ">", 128],
  ["CC(c1ccccc1)C1NC(=O)CNC(=O)C(CO)NC(=O)C(C(O)C2CN(c3ncccn3)C(=N)N2C2OC(CO)C(O)C(O)C2O)NC(=O)C(C(O)C2CNC(=Nc3ncccn3)N2)NC(=O)C(Cc2ccc(OC3OC(CO)C(OC4OC(CO)C(O)C(O)C4O)C(O)C3O)cc2)NC1=O (stereo not shown) [Example 92]", "Enterococcus sp.", "MIC Enterococcus faecalis (GC 3059)", ">", 128],
  ["Cc1cccc(Oc2ccc(-c3nc4cc(C[C@@H]5NC(=O)[C@H](C(C)c6ccccc6)NC(=O)CNC(=O)[C@H](CO)NC(=O)[C@H](C(O)C6CNC(=N)N6)NC(=O)[C@H](C(O)C6CNC(=N)N6)NC5=O)ccc4o3)cc2)c1 (stereo partly shown) [Example 41]", "Enterococcus sp.", "MIC Enterococcus faecalis (GC 3059)", ">", 64],
  ["CC(c1ccccc1)C1NC(=O)CNC(=O)C(CO)NC(=O)C(C(O)C2CN(Cc3ccc4ccccc4c3)C(=N)N2C2OC(CO)C(O)C(O)C2O)NC(=O)C(C(O)C2CNC(=N)N2)NC(=O)C(Cc2ccc(OC3OC(CO)C(OC4OC5COC6(OC5C(O)C4O)C4CC5CC(C4)CC6C5)C(O)C3O)cc2)NC1=O (stereo not shown) [Example 78]", "Enterococcus sp.", "MIC Enterococcus faecalis (GC 3059)", "=", 16],
  ["Cc1cccc(C2OCC3OC(OC4C(CO)OC(Oc5ccc(CC6NC(=O)C(C(C)c7ccccc7)NC(=O)CNC(=O)C(CO)NC(=O)C(C(O)C7CNC(=N)N7C7OC(CO)C(O)C(O)C7O)NC(=O)C(C(O)C7CNC(=N)N7)NC6=O)cc5)C(O)C4O)C(O)C(O)C3O2)c1 (stereo not shown) [Example 135]", "Enterococcus sp.", "MIC Enterococcus faecalis (GC 3059)", "=", 2],
  ["CC(c1ccccc1)C1NC(=O)CNC(=O)C(CO)NC(=O)C(C(O)C2CNC(=N)N2C2OC(CO)C(O)C(O)C2O)NC(=O)C(C(O)C2CNC(=N)N2)NC(=O)C(Cc2ccc(OC3OC(CO)C(OC4OC5COC(Cc6ccc(F)cc6)OC5C(O)C4O)C(O)C3O)cc2)NC1=O (stereo not shown) [Example 121]", "Enterococcus sp.", "MIC Enterococcus faecalis (GC 3059)", "=", 2],
  ["N=C1NCC(C(O)C2NC(=O)C(Cc3ccc(OC4OC(CO)C(OC5OC(CO)C(O)C(O)C5O)C(O)C4O)cc3)NC(=O)C(Cc3ccccc3)NC(=O)CNC(=O)C(CO)NC(=O)C(C(O)C3CNC(=N)N3C3OC(CO)C(O)C(O)C3O)NC2=O)N1 (stereo not drawn) [Example 282] (cyclo(GFY(X2)[ξEnduracididine(βξ-OH,4'ξ)][X1]S); configuration not given here)", "Enterococcus sp.", "MIC Enterococcus faecalis (GC 3059)", ">", 128]
]}

Values were extracted from patent US6914045B2.
